Test system: DU-145 prostate
experimentNotes: NCI tumour cell line growth inhibition, 48 h
metric: TGI

Past entries and their recorded results:
| compound | TGI |
| --- | --- |
| O=C(O)CS(=O)(=O)C(c1ccccc1)c1ccccc1 | > 100 µM |
| CCOC(=O)/C(C)=C\[C@@]1(C)O[C@@H](C)[C@@](C)(OC(C)=O)[C@@H]1OC(C)=O | > 100 µM |
| C/C(=N\N)C(CN(C)C)C(c1ccccc1)c1c(O)c2ccccc2oc1=O (centres undefined) | > 100 µM |

// switching to the query compound
// TGI lookup, key: CCOC(=O)c1cc(Sc2ccc(N)c(C(=O)OCC)c2)ccc1N
> 100 µM

###

Tested on: NCI-H23 lung
experimentNotes: NCI tumour cell line growth inhibition, 48 h
metric: TGI

Worked examples, 2 compounds total:
| compound | resultValue |
| --- | --- |
| CCCN1C(=O)/C(=c2\sc3n(c2=O)C2C(NN=3)N(CC)C(=O)N2CC)c2ccccc21 (centres undefined) | 15.8 µM |
| Nc1ccn(C2CC(O)C(COP(O)(=S)OC3CC(n4ccc(N)nc4=O)OC3CO)O2)c(=O)n1 (centres undefined) | > 100 µM |

Consider the compound CCOC(=O)c1cc(Sc2ccc(N)c(C(=O)OCC)c2)ccc1N and give its measured TGI.
> 100 µM

Another compound to look at: CC1C2CC(CC(=O)N2)C1(C)C (centres undefined)
> 100 µM

###

Below, each entry is listed with its recorded TGI.
System: SN12C renal
experimentNotes: NCI tumour cell line growth inhibition, 48 h

Below are worked cases with known answers.
| compound | measuredOn | TGI |
| --- | --- | --- |
| O=C(NCCCCCCNC(=O)c1cccc2ccccc12)c1cccc2ccccc12 | SN12C renal | > 100 µM |
| CCOC(=O)/C(N=Nc1ccc(-n2c(C)nc3ccccc3c2=O)cc1)=C(/C)O | SN12C renal | > 100 µM |
| c1ccc2[nH]c(-c3ccc(N4CCN(c5ccc(-c6nc7ccccc7[nH]6)cc5)CC4)cc3)nc2c1 | SN12C renal | > 100 µM |
| C=CCC(N[C@H](CO)C(C)C)c1cn(C(=O)OCC)c2ccccc12 (some centres not stated) | SN12C renal | 51.6 µM |
| N#CC(C#N)=Cc1ccc(-c2ccc(-c3nc4ccccc4s3)cc2)o1 | SN12C renal | 12.6 µM |
| NC(=O)c1cc2ccccc2oc1=Nc1ccccc1 | SN12C renal | > 100 µM |

Now consider the entry below.
Name the recorded TGI for COc1ccc(Cn2nc(-c3cc(OC)c(OC)c(OC)c3)c3c2CCc2cnoc2-3)cc1OC .
> 100 µM

###

TGI for assorted compounds
System: DU-145 prostate
experimentNotes: NCI tumour cell line growth inhibition, 48 h

Sample answers from the record:
| compound | TGI |
| --- | --- |
| CCn1c(-c2nonc2N)nc2cncc(C(=O)N3CCNCC3)c21 | > 25 µM |
| COc1cc(Br)c(OC)c2c(OC)cc(C)cc12 | > 100 µM |
| COC(=O)N1C[C@@]2(C=CC3(CC2)OCCO3)c2ccccc21 | > 100 µM |
| COc1cc2nc(Cl)nc(Nc3cccc(C(=O)/C=C/c4ccccc4)c3)c2cc1OC | > 100 µM |

Consider the record given below.
Field request: TGI | item: NC(=O)C(Nc1c(Cl)cccc1Cl)c1cc2cc(Br)ccc2nc1Cl (stereo not given)
> 100 µM

Hello, the source for this data is PubChem BioAssay (NCI), in case you need it.
